# target.of.assay: 3-hydroxy-3-methylglutaryl-coenzyme A reductase (Rattus norvegicus)
# protocol: Relative potency to inhibit solubilized, partially purified rat liver HMG-CoA reductase compared with that of compactin.
observed.property: Relative potency

Check out these entries, answers already filled in.
| compound | Relative potency |
| --- | --- |
| O=C1C[C@H](O)CC(CCc2c(Cl)cc(Cl)cc2Oc2ccccc2)O1 (stereo not given in full) | 4.5 |
| COc1ccc(COc2cc(Cl)cc(Cl)c2/C=C/[C@@H]2C[C@@H](O)CC(=O)O2)cc1 | 0.8 |

(a) O=C1C[C@H](O)C[C@@H](CCc2c(Cl)cc(Cl)cc2OCc2ccccc2)O1 (stereo in doubt; 8a(-))
(b) O=C1C[C@H](O)C[C@@H](/C=C/c2c(Cl)cc(Cl)cc2OC/C=C/c2ccccc2)O1
(c) O=C1C[C@H](O)C[C@@H](/C=C/c2c(Cl)cc(Cl)cc2OC(c2ccccc2)c2ccccc2)O1
Query: Arrange by Relative potency, high to low. # the answer lists labels in the order requested
Response: b, c, a

Cited source: ChEMBL document CHEMBL1123389
